- Tested on: pCHK1 (S345) in Colo320 DM cells
- ASSAY_COMMENT: Alphalisa assay, detection of pCHK1 (S345) in Colo320 DM cells
- Type: cell-based, human
- CONDITION_INFO: Homo sapiens, COLO 320DM, compound overnight (approximately 16 hours)
pIC50: −log10 of the molar value.
RECORDED_METRIC: pIC50

Returns the measured pIC50 for the input molecule. Input: "Cc1ccc(F)c([C@@H](C)[C@@H](c2n[nH]c(=O)o2)N2CN(C3CNC3)c3cc(Cl)ccc3S2(=O)=O)c1C"
4.30 to 5.00

Returns the measured pIC50 for the input molecule. Input: Cc1ccc(F)c([C@@H](C)[C@@H](c2n[nH]c(=O)o2)N2CN(CC3CCOC3)c3cc(Cl)ccc3S2(=O)=O)c1C (stereo partly drawn)
≥ 6.00

Returns the measured pIC50 for the input molecule. Input: "CC(=O)c1cc(Cl)cc2c1S(=O)(=O)N([C@H](c1n[nH]c(=O)o1)[C@H](C)c1c(F)ccc(C)c1C)CN2C"
≥ 6.00

Returns the measured pIC50 for the input molecule. Input: "Cc1ccc(F)c([C@@H](C)[C@@H](c2n[nH]c(=O)o2)N2CN(C3CC(=O)C3)c3cc(Cl)ccc3S2(=O)=O)c1C"
≥ 6.00

Returns the measured pIC50 for the input molecule. Input: "CC(=O)c1cc(Cl)cc2c1S(=O)(=O)N([C@H](c1n[nH]c(=O)o1)[C@@H](C)c1c(F)ccc(C)c1C)CO2"
5.00 to 5.30

Returns the measured pIC50 for the input molecule. Input: "Cc1ccc(F)c([C@@H](C)[C@@H](c2n[nH]c(=O)o2)N2CN(CCN)c3cc(Cl)ccc3S2(=O)=O)c1C"
5.00 to 5.30

* * *

What IC50 was measured for each of the following?
- ASSAY_TARGET: RNR (RNR1:RNR2 1:1) (Homo sapiens)
- Sequence (P23921 whole entry): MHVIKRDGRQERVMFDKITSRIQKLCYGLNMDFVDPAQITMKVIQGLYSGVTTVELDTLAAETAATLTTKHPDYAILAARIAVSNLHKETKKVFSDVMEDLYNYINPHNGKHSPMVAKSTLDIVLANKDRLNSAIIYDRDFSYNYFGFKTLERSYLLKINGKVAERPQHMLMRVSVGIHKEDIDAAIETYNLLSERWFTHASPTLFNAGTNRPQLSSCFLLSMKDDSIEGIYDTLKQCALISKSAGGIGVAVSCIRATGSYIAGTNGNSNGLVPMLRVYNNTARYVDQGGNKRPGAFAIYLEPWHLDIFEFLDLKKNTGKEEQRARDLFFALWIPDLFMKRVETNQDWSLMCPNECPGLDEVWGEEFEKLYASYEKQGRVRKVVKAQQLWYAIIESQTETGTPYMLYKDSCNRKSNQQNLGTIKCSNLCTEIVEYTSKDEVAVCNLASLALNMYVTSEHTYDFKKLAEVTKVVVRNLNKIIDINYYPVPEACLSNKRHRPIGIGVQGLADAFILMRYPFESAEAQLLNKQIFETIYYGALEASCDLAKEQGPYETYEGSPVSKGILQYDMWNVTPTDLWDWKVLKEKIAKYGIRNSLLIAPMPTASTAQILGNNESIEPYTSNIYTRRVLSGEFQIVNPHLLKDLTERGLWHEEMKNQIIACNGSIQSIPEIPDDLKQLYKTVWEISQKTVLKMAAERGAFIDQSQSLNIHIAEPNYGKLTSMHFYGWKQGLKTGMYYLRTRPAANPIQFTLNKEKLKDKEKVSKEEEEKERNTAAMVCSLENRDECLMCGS
- ASSAY_COMMENT: RNR enzyme activity, rapid-fire mass spectrometry (RF/MS) assay
- Type: biochemical
- CONDITION_INFO: [RNR] 50 nM, 1:1 RNR1:RNR2; CDP 5 μM; ATP 1 mM; 37° C., 45 min; compounds screened up to 50 μM

Returns the measured IC50 for the input molecule. Input: "COCc1cc(Cl)cc2c1S(=O)(=O)N([C@H](c1n[nH]c(=O)o1)[C@H](C)c1c(F)ccc(C)c1C)CCO2"
100 to 1000 nM

Returns the measured IC50 for the input molecule. Input: "Cc1ccc(F)c([C@@H](C)[C@@H](c2n[nH]c(=O)o2)N2CN(C)c3cc(O)ccc3S2(=O)=O)c1C"
20 to 100 nM

Returns the measured IC50 for the input molecule. Input: Cc1ccc(F)c([C@@H](C)[C@@H](c2n[nH]c(=O)o2)N2CCOc3c(ccc(Cl)c3C(C)O)S2(=O)=O)c1C (single isomer, unassigned)
10000 to 100000 nM

* * *

- Tested on: pCHK1 (S345) in Colo320 DM cells
- ASSAY_COMMENT: Alphalisa assay, detection of pCHK1 (S345) in Colo320 DM cells
- Assay type: cell-based, human
- CONDITION_INFO: Homo sapiens, COLO 320DM, compound overnight (approximately 16 hours)
What IC50 was measured for each of the following?

Returns the measured IC50 for the input molecule. Input: Cc1ccc(F)c([C@@H](C)[C@@H](c2n[nH]c(=O)o2)N2CN(C[C@@H]3CCCO3)c3cc(Cl)ccc3S2(=O)=O)c1C [Example 62]
≤ 1 µM

Returns the measured IC50 for the input molecule. Input: Cc1ccc(F)c([C@@H](C)[C@@H](c2n[nH]c(=O)o2)N2CN(C3CC3)c3cc(Cl)cc(C(C)Cl)c3S2(=O)=O)c1C (stereo partly drawn) [Example 100]
1 to 5 µM

Returns the measured IC50 for the input molecule. Input: [2H]C([2H])([2H])N1CN([C@H](c2n[nH]c(=O)o2)[C@H](C)c2c(F)ccc(C)c2C)S(=O)(=O)c2ccc(Cl)cc21 [Example 9]
≤ 1 µM

Provenance of the data: patent US20260085067A1
